# System: Eubacterium rectale
# method_summary: growth AUC relative to DMSO control (median of replicates) (fraction); higher = more growth (less inhibition), active = hit call of the paper
# applied_conditions: 20 µM; 24 h
Tick Condition met if growth AUC is 1 or greater. Tick Condition not met if growth AUC is less than 1.

{"compound": "CC(C)N(C(=O)SCC(Cl)=C(Cl)Cl)C(C)C", "class": "Condition met"}
{"compound": "COP(=O)(OC)OC=C(Cl)Cl", "class": "Condition met"}
{"compound": "N#Cc1nn(-c2c(Cl)cc(C(F)(F)F)cc2Cl)c(N)c1SC(F)(F)F", "class": "Condition not met"}
{"compound": "CC(=O)O.NC(N)=NCCCCCCCCNCCCCCCCCN=C(N)N", "class": "Condition not met"}
{"compound": "CC(C)[C@@H](Nc1ccc(C(F)(F)F)cc1Cl)C(=O)OC(C#N)c1cccc(Oc2ccccc2)c1 (stereo not given in full)", "class": "Condition met"}

###

# Test system: Parabacteroides distasonis
# method_summary: growth AUC relative to DMSO control (median of replicates) (fraction); higher = more growth (less inhibition), active = hit call of the paper;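 active = AUC reduced over 20% with Padj below 0.05 in at least 2 of 3 replicates; inactive = otherwise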
# applied_conditions: 20 µM; 24 h
Labels: active, inactive

{"molecule": "CNC(=O)Oc1ccccc1OC(CCl)OC (stereo not given)", "class": "inactive"}
{"molecule": "CNC(=O)Oc1ccccc1C(C)C", "class": "inactive"}
{"molecule": "CNc1cnn(-c2cccc(C(F)(F)F)c2)c(=O)c1Cl", "class": "inactive"}
{"molecule": "CNC(=O)O/N=C/C(C)(C)SC", "class": "inactive"}
{"molecule": "C[Si](Cn1cncn1)(c1ccc(F)cc1)c1ccc(F)cc1", "class": "inactive"}
{"molecule": "CN(C)C(CSS(=O)(=O)c1ccccc1)CSS(=O)(=O)c1ccccc1", "class": "inactive"}
{"molecule": "CCCCOC(=O)N(C)SN(C)C(=O)Oc1cccc2c1OC(C)(C)C2", "class": "inactive"}
{"molecule": "CCSC(=O)N(CC)C1CCCCC1", "class": "inactive"}
{"molecule": "CCCN(CC)CC1COC2(CCC(C(C)(C)C)CC2)O1 (stereo not given)", "class": "inactive"}
{"molecule": "CCOP(=O)(OCC)O/C(=C/Br)c1ccc(Cl)cc1Cl", "class": "active"}
{"molecule": "CCOP(=O)(Sc1ccccc1)Sc1ccccc1", "class": "active"}
{"molecule": "CC1(C)C(C(=O)OC(C#N)c2cccc(Oc3ccccc3)c2)C1(C)C (stereo not given)", "class": "inactive"}
{"molecule": "COP(=O)(OC)C(O)C(Cl)(Cl)Cl (stereo not given)", "class": "inactive"}
{"molecule": "CNC(=O)ON=C(CSC)C(C)(C)C", "class": "inactive"}
{"molecule": "O=NN(CCO)CCO", "class": "inactive"}
{"molecule": "CON(C)C(=O)Nc1ccc(Br)cc1", "class": "inactive"}
{"molecule": "CCOc1nc(NC)nc(NC(=O)NS(=O)(=O)c2ccccc2C(=O)OC)n1", "class": "inactive"}
{"molecule": "CC(C)N(C(=O)SCC(Cl)=C(Cl)Cl)C(C)C", "class": "inactive"}
{"molecule": "CCOCn1c(-c2ccc(Cl)cc2)c(C#N)c(Br)c1C(F)(F)F", "class": "inactive"}
{"molecule": "C[C@@H](Oc1ccc(Cl)cc1Cl)C(=O)O", "class": "inactive"}
{"molecule": "CCCOC(=O)c1ccccc1C(=O)OCCC", "class": "inactive"}
{"molecule": "CCCCOC(=O)c1ccccc1C(=O)OCCCC", "class": "active"}
{"molecule": "CN1COCN(Cc2cnc(Cl)s2)/C1=N/[N+](=O)[O-]", "class": "inactive"}
{"molecule": "COP(=S)(Oc1cc(Cl)c(Br)cc1Cl)c1ccccc1 (stereo not given)", "class": "inactive"}
{"molecule": "CCc1cccc(CC)c1N(COC)C(=O)CCl", "class": "inactive"}

###

# System: Eubacterium rectale
# method_summary: growth AUC relative to DMSO control (median of replicates) (fraction); higher = more growth (less inhibition), active = hit call of the paper
# applied_conditions: 20 µM; 24 h

{"compound": "CCCCNC(=O)n1c(NC(=O)OC)nc2ccccc21", "growth AUC": "0.917 (inactive)"}
{"compound": "O=C(O)COc1nc(Cl)c(Cl)cc1Cl", "growth AUC": "1.15 (inactive)"}
{"compound": "C[C@@H](Oc1ccc(Oc2ncc(C(F)(F)F)cc2Cl)cc1)C(=O)O", "growth AUC": "0.973 (inactive)"}
{"compound": "ClC1=C(Cl)C2(Cl)C3C(Cl)C=CC3C1(Cl)C2(Cl)Cl (configuration not stated)", "growth AUC": "1.09 (inactive)"}
{"compound": "CNC(=O)Oc1ccc(N(C)C)c(C)c1", "growth AUC": "1.06 (inactive)"}
{"compound": "CC(C)C(C(=O)OC(C#N)c1cccc(Oc2ccccc2)c1)c1ccc(OC(F)F)cc1 (configuration not stated)", "growth AUC": "0.848 (inactive)"}
{"compound": "Clc1cc(Cl)c(Cl)cc1Cl", "growth AUC": "0.986 (inactive)"}
{"compound": "CC1(C(=O)Nc2ccc(O)c(Cl)c2Cl)CCCCC1", "growth AUC": "0.973 (inactive)"}
{"compound": "N#Cc1c(Cl)cccc1Cl", "growth AUC": "0.936 (inactive)"}
{"compound": "COC[C@H](C)N(C(=O)CCl)c1c(C)csc1C", "growth AUC": "1.17 (inactive)"}
{"compound": "N#Cc1c[nH]cc1-c1cccc(Cl)c1Cl", "growth AUC": "1.06 (inactive)"}
{"compound": "CN(C)NC(=O)CCC(=O)O", "growth AUC": "0.926 (inactive)"}
{"compound": "O=S(=O)(c1ccc(O)cc1)c1ccc(O)cc1", "growth AUC": "0.972 (inactive)"}
{"compound": "ClCC(Br)CBr (configuration not stated)", "growth AUC": "0.994 (inactive)"}
{"compound": "CC(C)(C)C(O)C(Cc1ccc(Cl)cc1Cl)n1cncn1 (mixture of isomers)", "growth AUC": "0.845 (inactive)"}
{"compound": "CS(=O)(=O)c1ccc(C(=O)C2C(=O)CCCC2=O)c([N+](=O)[O-])c1", "growth AUC": "0.882 (inactive)"}
{"compound": "CC1(C)C(C=C(Cl)Cl)C1C(=O)OC(C#N)c1cccc(Oc2ccccc2)c1 (mixture of isomers)", "growth AUC": "1.02 (inactive)"}
{"compound": "Cc1occc1C(=O)Nc1ccccc1", "growth AUC": "1.16 (inactive)"}
{"compound": "CC(=O)CC(c1ccco1)c1c(O)c2ccccc2oc1=O (configuration not stated)", "growth AUC": "0.985 (inactive)"}
{"compound": "COC(=O)NCc1cc(/C(C)=N/OCc2cccc(C)n2)ccc1Cl", "growth AUC": "0.998 (inactive)"}
{"compound": "O=[N+]([O-])c1ccc(O)c([N+](=O)[O-])c1", "growth AUC": "1.02 (inactive)"}
{"compound": "O=c1oc2ccccc2c(O)c1C1CCCc2ccccc21 (configuration not stated)", "growth AUC": "1.08 (inactive)"}
{"compound": "C=CCOC(=O)C(C)(C)OC(=O)c1cc(-n2c(=O)cc(C(F)(F)F)n(C)c2=O)ccc1Cl", "growth AUC": "1.05 (inactive)"}
{"compound": "COP(=S)(OC)Oc1ccc([N+](=O)[O-])cc1", "growth AUC": "1.13 (inactive)"}
{"compound": "O=C(O)c1ccc(=O)[nH]c1", "growth AUC": "0.976 (inactive)"}
{"compound": "Nc1cc(Cl)ccc1Cl", "growth AUC": "0.989 (inactive)"}
{"compound": "CNC(=S)S", "growth AUC": "1.03 (inactive)"}
{"compound": "CCOC(=O)CC(SP(=S)(OC)OC)C(=O)OCC (configuration not stated)", "growth AUC": "1.07 (inactive)"}
{"compound": "O=C1c2ccccc2C(=O)N1SC(Cl)(Cl)Cl", "growth AUC": "1.06 (inactive)"}
{"compound": "O=[N+]([O-])c1c(Cl)c(Cl)c(Cl)c(Cl)c1Cl", "growth AUC": "0.909 (inactive)"}
{"compound": "CCOP(=S)(Oc1cnc(C(C)(C)C)nc1)OC(C)C (configuration not stated)", "growth AUC": "0.811 (inactive)"}
{"compound": "CCOP(=O)(OCC)ON1C(=O)c2cccc3cccc(c23)C1=O", "growth AUC": "1.16 (inactive)"}
{"compound": "CCCN(CCCl)c1c([N+](=O)[O-])cc(C(F)(F)F)cc1[N+](=O)[O-]", "growth AUC": "0.942 (inactive)"}
{"compound": "COCCOC(=O)C(C#N)(C(=O)c1ccccc1C(F)(F)F)c1ccc(C(C)(C)C)cc1 (configuration not stated)", "growth AUC": "1.05 (inactive)"}
{"compound": "CCOP(=O)(NC(C)C)Oc1ccc(S(C)=O)c(C)c1 (configuration not stated)", "growth AUC": "1.05 (inactive)"}
{"compound": "O=c1c2cc(F)ccc2nc(-n2cncn2)n1-c1ccc(Cl)cc1Cl", "growth AUC": "0.963 (inactive)"}
{"compound": "O=[N+]([O-])NC1=NCOCN1Cc1cnc(Cl)s1", "growth AUC": "1.1 (inactive)"}
{"compound": "CCC(=O)Nc1ccc(Cl)c(Cl)c1", "growth AUC": "0.992 (inactive)"}
{"compound": "CCS(=O)(=O)c1cccnc1S(=O)(=O)NC(=O)Nc1nc(OC)cc(OC)n1", "growth AUC": "0.943 (inactive)"}
{"compound": "CNC(=O)O/N=C/C(C)(C)SC", "growth AUC": "0.966 (inactive)"}
{"compound": "CCOP(=S)(OCC)SCS(=O)C(C)(C)C (configuration not stated)", "growth AUC": "1.01 (inactive)"}
{"compound": "CS/C(C)=N/OC(=O)N(C)SN(C)C(=O)O/N=C(\\C)SC", "growth AUC": "1.17 (inactive)"}
{"compound": "O=S(=O)(c1ccc(Cl)cc1)c1cc(Cl)c(Cl)cc1Cl", "growth AUC": "0.926 (inactive)"}
{"compound": "N#Cc1c(O)c(Cl)c(Cl)c(C#N)c1Cl", "growth AUC": "0.938 (inactive)"}
{"compound": "CCOP(=O)(OCC)OP(=O)(OCC)OCC", "growth AUC": "1.19 (inactive)"}
{"compound": "C/C(=N\\NC(=O)Nc1cc(F)cc(F)c1)c1ncccc1C(=O)[O-].[Na+]", "growth AUC": "1.12 (inactive)"}
{"compound": "COC(=O)c1ccccc1CS(=O)(=O)NC(=O)Nc1nc(OC)cc(OC)n1", "growth AUC": "0.998 (inactive)"}
